OBSERVATION TYPE: melting point

Input: Can you look up the measured melting point of CC(C)NS(=O)(=O)c1ccc(N)cc1 for me?
Output: 112 to 114 °C

Input: Can you look up the measured melting point of Cc1c(NC(=S)Nc2c(C)n(C)n(-c3ccccc3)c2=O)c(=O)n(-c2ccccc2)n1C for me?
Output: 93 to 95 °C

Input: Can you look up the measured melting point of O=C(O)CCC(=O)c1csc2ccccc12 for me?
Output: 139 to 141 °C

Input: Can you look up the measured melting point of CC(C)(C)OC(=O)Nc1ccncc1C=O for me?
Output: 62 to 64 °C

Input: Can you look up the measured melting point of COc1ccc(Br)cc1NCc1cccnc1 for me?
Output: 66 to 68 °C

Input: Can you look up the measured melting point of O=c1nc(CCl)[nH][nH]1 for me?
Output: 179 to 181 °C

Input: Can you look up the measured melting point of O=C(O)Cn1cnc(-c2ccccc2)n1 for me?
Output: 179 to 181 °C

Input: Can you look up the measured melting point of Nc1ccc(S(=O)(=O)Nc2ccc(Cl)c(Cl)c2)cc1 for me?
Output: 223 to 225 °C

Input: Can you look up the measured melting point of Cc1ccc(-c2csc(CC(N)=NO)n2)cc1 for me?
Output: 146 to 148 °C

Input: Can you look up the measured melting point of O=C(O)CNC(=O)c1ccc(Br)o1 for me?
Output: 91 to 93 °C

Input: Can you look up the measured melting point of CC(=O)c1ccc(F)cc1OC(F)F for me?
Output: 55 to 57 °C

Input: Can you look up the measured melting point of CCCOc1ccc(OCCBr)cc1 for me?
Output: 45 to 47 °C

Input: Can you look up the measured melting point of O=C(O)C#Cc1ccc(F)cc1F for me?
Output: 170 to 172 °C

Input: Can you look up the measured melting point of O=C(O)C1CCCN(C(=O)c2ccccn2)C1 (stereo not drawn) for me?
Output: 167 to 169 °C

Input: Can you look up the measured melting point of COc1cc(C#N)ccc1OCCCl for me?
Output: 95 to 97 °C

Input: Can you look up the measured melting point of CC(=O)NCC(=O)NCC(=O)O for me?
Output: 174 to 176 °C

Input: Can you look up the measured melting point of Nc1ccc(-c2nnc3n2CCC3)cc1 for me?
Output: 311 to 313 °C

Input: Can you look up the measured melting point of COc1cc(OC)cc(C(N)c2nccn2C)c1 (stereo not drawn) for me?
Output: 99 to 101 °C

Input: Can you look up the measured melting point of O=C1NC(=O)N(Cc2cccs2)C1=O for me?
Output: 170 to 172 °C

Input: Can you look up the measured melting point of COC(=O)COc1c(C)cc(C(=O)O)cc1C for me?
Output: 173 to 175 °C

Input: Can you look up the measured melting point of CCc1cccc(OCC(=O)O)c1 for me?
Output: 66 to 70 °C

Input: Can you look up the measured melting point of CCCC(C(=O)O)c1ccccc1 (stereo not drawn) for me?
Output: 63 to 67 °C

Input: Can you look up the measured melting point of CS(=O)(=O)Nc1cc(F)ccc1N for me?
Output: 121 to 123 °C

Input: Can you look up the measured melting point of Cc1nc2ccc(C#N)cc2s1 for me?
Output: 129 to 131 °C

Input: Can you look up the measured melting point of CNCc1cn(-c2ccccc2)nc1-c1ccc(Cl)cc1 for me?
Output: 65 to 67 °C

Input: Can you look up the measured melting point of Cn1cc(CCC(=O)O)cn1 for me?
Output: 137 to 139 °C

Input: Can you look up the measured melting point of Cc1ccc(C#N)cc1S(=O)(=O)Cl for me?
Output: 82 to 84 °C

Input: Can you look up the measured melting point of NC(=NO)c1ccc([N+](=O)[O-])cc1 for me?
Output: 187 to 189 °C

Input: Can you look up the measured melting point of Cc1noc(-c2ccc([N+](=O)[O-])c(C)c2)n1 for me?
Output: 132 to 134 °C

Input: Can you look up the measured melting point of NC(=O)c1cc(N)nc2ccccc12 for me?
Output: 199 to 201 °C

Input: Can you look up the measured melting point of CC(C)(C)OC(=O)N1C(C(=O)O)CC2CCCCC21 (stereo not drawn) for me?
Output: 133 to 135 °C

Input: Can you look up the measured melting point of COc1ccc(N)c(OC)n1 for me?
Output: 210 to 212 °C

Input: Can you look up the measured melting point of Cc1c(C(=O)O)cnn1C1CCOCC1 for me?
Output: 207 to 209 °C

====

OBSERVATION TYPE: melting point

Input: Can you look up the measured melting point of CC(NC(=O)CCl)c1cccs1 (stereo not given) for me?
Output: 92 to 94 °C

Input: Can you look up the measured melting point of COc1ccc(C)cc1/C=C/C(=O)O for me?
Output: 141 to 143 °C

Input: Can you look up the measured melting point of NC(=O)CCc1ccc(C(=O)O)cc1 for me?
Output: 226 to 228 °C

Input: Can you look up the measured melting point of COC(=O)c1ccc(N)c(F)c1 for me?
Output: 111 to 113 °C

Input: Can you look up the measured melting point of NC(=S)N1CCN(c2nccs2)CC1 for me?
Output: 179 to 181 °C

Input: Can you look up the measured melting point of Cc1nnc2n1CC(C(=O)O)CC2 (stereo not given) for me?
Output: 249 to 251 °C

Input: Can you look up the measured melting point of CC(C)(C)c1ccc(S(=O)(=O)CCN)cc1 for me?
Output: 46 to 48 °C

Input: Can you look up the measured melting point of Cc1cccc(I)c1C(=O)O for me?
Output: 116 to 118 °C

Input: Can you look up the measured melting point of CN1CCN(C(=O)c2ccccc2N)CC1 for me?
Output: 74 to 76 °C

Input: Can you look up the measured melting point of CC(C)CC(=O)Cc1ccc(Cl)cc1Cl for me?
Output: 28 to 30 °C

Input: Can you look up the measured melting point of CC(C)c1cnc(S)n1C1CC1 for me?
Output: 175 to 177 °C

Input: Can you look up the measured melting point of O=C(O)c1ccnc(OC2CCOC2)c1 (stereo not given) for me?
Output: 109 to 111 °C

Input: Can you look up the measured melting point of COc1ccc2nc(C)cc(C(=O)O)c2c1 for me?
Output: 279 to 281 °C

Input: Can you look up the measured melting point of Nc1nc2ccccc2n1N for me?
Output: 259 to 261 °C

Input: Can you look up the measured melting point of NC(=NO)c1ccc(OCc2ccccc2)cc1 for me?
Output: 167 to 169 °C

====

For each of the compounds below, state its melting point.

Input: Can you look up the measured melting point of COc1cc(C(=O)O)c(F)cc1N for me?
Output: 189 to 191 °C

Input: Can you look up the measured melting point of O=C(CCl)Nc1ccc(Oc2ccc(Br)cc2)nc1 for me?
Output: 114 to 116 °C

Input: Can you look up the measured melting point of CS(=O)(=O)c1cccs1 for me?
Output: 43 to 45 °C

Input: Can you look up the measured melting point of Cc1ccc(NCCC(=O)O)nc1 for me?
Output: 201 to 203 °C

Input: Can you look up the measured melting point of CCOC(=O)Cc1cc(=O)oc2ccc(O)cc12 for me?
Output: 173 to 175 °C

Input: Can you look up the measured melting point of O=C(Nc1cccc(F)c1)OCC(F)(F)F for me?
Output: 50 to 52 °C

Input: Can you look up the measured melting point of CNc1ccc([N+](=O)[O-])c(C)c1 for me?
Output: 90 to 92 °C

Input: Can you look up the measured melting point of CC(NS(C)(=O)=O)C(=O)NN (stereo not drawn) for me?
Output: 117 to 119 °C

Input: Can you look up the measured melting point of Cn1c(S)nnc1C(F)F for me?
Output: 171 to 173 °C

Input: Can you look up the measured melting point of O=C1CNc2ccccc2C(=O)N1 for me?
Output: 207 to 209 °C

Input: Can you look up the measured melting point of O=C(NC1CCCCNC1=O)OCC(F)(F)F (stereo not drawn) for me?
Output: 199 to 201 °C

Input: Can you look up the measured melting point of Cn1nc(Br)c(C(=O)NCC(=O)O)c1N for me?
Output: 239 to 241 °C

Input: Can you look up the measured melting point of O=S(=O)(c1ccc(Cl)c(N=C=S)c1)N1CCOCC1 for me?
Output: 118 to 120 °C

Input: Can you look up the measured melting point of O=S(=O)(Cl)c1csc(-c2ccc(Br)cc2)n1 for me?
Output: 116 to 118 °C

Input: Can you look up the measured melting point of CC(C)Oc1ccc(NS(=O)(=O)CC(=O)O)cc1 for me?
Output: 116 to 118 °C

Input: Can you look up the measured melting point of NC1CCN(c2ccc(F)c(Cl)c2)C1=O (stereo not drawn) for me?
Output: 110 to 112 °C

Input: Can you look up the measured melting point of Cn1c(-c2ccccc2)c(C(=O)CC#N)c2ccccc21 for me?
Output: 155 to 157 °C

Input: Can you look up the measured melting point of CCc1c(C)nc2ccccc2c1N for me?
Output: 148 to 150 °C

Input: Can you look up the measured melting point of O=C(O)CCc1cc2ccccc2o1 for me?
Output: 110 to 112 °C

Input: Can you look up the measured melting point of O=[N+]([O-])c1ccc(S(=O)(=O)Cl)c(Br)c1 for me?
Output: 70 to 72 °C

Input: Can you look up the measured melting point of COc1nnc(Cl)c2ccccc12 for me?
Output: 99 to 101 °C

Input: Can you look up the measured melting point of CCOC(=O)C1=C(C)NC(=O)NC1CCl (stereo not drawn) for me?
Output: 169 to 171 °C

Input: Can you look up the measured melting point of O=C(O)CN1CC(=O)Oc2ccccc21 for me?
Output: 176 to 178 °C
